Biological target: T1, EsCas13d, nuclease-dead (Eubacterium siraeum, UniProt B0MS50, R295A;H300A;R849A;H854A)
T1 sequence: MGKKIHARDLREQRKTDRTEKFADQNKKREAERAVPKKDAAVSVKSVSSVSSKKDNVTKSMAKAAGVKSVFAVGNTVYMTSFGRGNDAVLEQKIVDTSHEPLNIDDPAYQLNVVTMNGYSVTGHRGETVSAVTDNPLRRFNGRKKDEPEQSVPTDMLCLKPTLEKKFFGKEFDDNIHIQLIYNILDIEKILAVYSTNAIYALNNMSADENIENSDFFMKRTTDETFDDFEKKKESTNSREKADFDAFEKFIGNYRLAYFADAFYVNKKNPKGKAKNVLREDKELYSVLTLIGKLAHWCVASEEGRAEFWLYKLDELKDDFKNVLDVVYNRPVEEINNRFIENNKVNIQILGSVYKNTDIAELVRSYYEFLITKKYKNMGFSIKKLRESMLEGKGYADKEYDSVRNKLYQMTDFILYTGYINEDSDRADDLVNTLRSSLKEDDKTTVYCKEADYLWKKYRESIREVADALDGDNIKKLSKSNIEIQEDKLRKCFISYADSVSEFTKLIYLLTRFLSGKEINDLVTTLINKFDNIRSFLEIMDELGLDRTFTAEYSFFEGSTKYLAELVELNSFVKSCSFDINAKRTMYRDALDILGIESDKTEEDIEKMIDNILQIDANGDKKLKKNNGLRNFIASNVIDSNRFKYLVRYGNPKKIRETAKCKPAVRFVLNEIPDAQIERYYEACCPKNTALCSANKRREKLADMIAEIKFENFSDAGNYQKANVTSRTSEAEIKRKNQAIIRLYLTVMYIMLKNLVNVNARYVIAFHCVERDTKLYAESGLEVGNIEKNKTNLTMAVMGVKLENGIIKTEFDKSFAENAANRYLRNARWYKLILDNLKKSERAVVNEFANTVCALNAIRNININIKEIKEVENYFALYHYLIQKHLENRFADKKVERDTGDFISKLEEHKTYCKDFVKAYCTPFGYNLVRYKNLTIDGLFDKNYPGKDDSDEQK
Test: crRNA (strand 1, pre-loaded); Mg2+; 40 mM Tris-HCl pH 7.5, 150 mM NaCl, 6 mM MgCl2, 1 mM DTT, 0.1% Tween-20, 0.2 mg/ml BSA; 25 C; 10 min per concentration, then washed
Conditions: tags: His6-TwinStrep-SUMO cleaved; N-terminal SNAP kept (SNAP-Surface 488); label: 3' end held by stalled T7 RNA polymerase
Each entry below carries its recorded Kd.
Report as: number unit

Q: I am curious: what Kd value has been reported for target 1 MT 5'PFS GCG 3'PFS ACC (mixed) RNA 1: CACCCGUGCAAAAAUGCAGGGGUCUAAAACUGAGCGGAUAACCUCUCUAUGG RNA 2: GGGAAUGGAUCCACAUCUACGAAUUCGCGCCAUAGAGAGGUUAUCCGCUCAACCAGAUCGGAAGAGCACACGU ?
A: 20 nM

More entries:
Q: Any idea what its Kd is? The binder is target 1 insU 3' of 20,insA 3' of 10 (mixed) RNA 1: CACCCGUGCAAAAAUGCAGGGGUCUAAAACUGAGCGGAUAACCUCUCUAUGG RNA 2: GGGAAUGGAUCCACAUCUACGAAUUCGUACCAUUAGAGAGGUUAAUCCGCUCACCGAGAUCGGAAGAGCACACGU
A: 19.4 nM
